Taken from patent US20190367631A1.

Target: T1, monkey MSR1 extracellular domain expressed with a N-terminal hexahistidine-myc-myc tag (HMM-mfMSR1) (monkey (Macaca fascicularis))
T1 chain: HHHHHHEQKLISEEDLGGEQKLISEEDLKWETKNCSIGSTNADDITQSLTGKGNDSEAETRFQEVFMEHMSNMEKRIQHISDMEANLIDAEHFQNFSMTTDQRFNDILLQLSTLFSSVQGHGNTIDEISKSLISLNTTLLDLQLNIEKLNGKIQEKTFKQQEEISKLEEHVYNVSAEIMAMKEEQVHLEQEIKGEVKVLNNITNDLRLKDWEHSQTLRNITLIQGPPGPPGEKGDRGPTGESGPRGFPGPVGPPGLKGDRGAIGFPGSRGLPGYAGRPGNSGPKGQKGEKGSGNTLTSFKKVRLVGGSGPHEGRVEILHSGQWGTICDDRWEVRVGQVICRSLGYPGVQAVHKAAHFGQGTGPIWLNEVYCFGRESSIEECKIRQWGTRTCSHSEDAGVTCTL
Test: SPR Biacore, 25 C, antibody captured;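 note: rates from 1:1 fit with mass transport limitation of real-time sensorgrams, HEPES-buffered saline with EDTA and Tween-20 at pH 7.4, KD and t½ derived from the kinetic rates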
Mark each entry True if its koff sits below 0.0001 s⁻¹, and False for all others.

For orientation, consider the following solved cases.
Binder	Category label
H1H27729P-N297Q (antibody, V domains shown, Human IgG1 Fc with N297Q point mutation) VH: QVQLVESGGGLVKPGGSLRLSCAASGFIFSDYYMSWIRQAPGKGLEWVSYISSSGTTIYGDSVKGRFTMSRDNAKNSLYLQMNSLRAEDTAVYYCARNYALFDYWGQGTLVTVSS VL: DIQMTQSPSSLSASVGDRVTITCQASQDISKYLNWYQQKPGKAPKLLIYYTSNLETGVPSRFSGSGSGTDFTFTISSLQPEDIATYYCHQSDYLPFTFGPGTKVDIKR	False
H1H27747P-N297Q (antibody, V domains shown, Human IgG1 Fc with N297Q point mutation) VH: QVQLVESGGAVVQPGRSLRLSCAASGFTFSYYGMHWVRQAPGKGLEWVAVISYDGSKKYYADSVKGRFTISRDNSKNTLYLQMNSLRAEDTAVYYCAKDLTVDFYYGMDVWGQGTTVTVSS VL: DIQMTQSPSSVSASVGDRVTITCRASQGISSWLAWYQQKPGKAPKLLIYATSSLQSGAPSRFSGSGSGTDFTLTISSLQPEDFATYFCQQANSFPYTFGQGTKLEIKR	False
H1H27739P-N297Q (antibody, V domains shown, Human IgG1 Fc with N297Q point mutation) VH: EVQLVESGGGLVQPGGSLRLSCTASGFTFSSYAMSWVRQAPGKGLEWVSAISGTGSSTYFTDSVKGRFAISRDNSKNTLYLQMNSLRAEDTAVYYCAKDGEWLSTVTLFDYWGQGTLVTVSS VL: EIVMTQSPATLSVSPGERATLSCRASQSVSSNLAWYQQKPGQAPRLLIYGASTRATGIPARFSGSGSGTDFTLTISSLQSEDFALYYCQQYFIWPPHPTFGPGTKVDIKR	False
H1H21234N-N297Q (antibody, V domains shown, Human IgG1 Fc with N297Q point mutation (EU numbering)) VH: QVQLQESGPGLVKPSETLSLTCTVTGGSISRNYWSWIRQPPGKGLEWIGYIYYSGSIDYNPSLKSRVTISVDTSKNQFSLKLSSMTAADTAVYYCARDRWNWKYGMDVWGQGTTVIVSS VL: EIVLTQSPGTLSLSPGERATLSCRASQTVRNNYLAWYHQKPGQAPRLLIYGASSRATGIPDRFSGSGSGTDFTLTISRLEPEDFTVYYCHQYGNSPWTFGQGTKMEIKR	True
H1H27734P-N297Q (antibody, V domains shown, Human IgG1 Fc with N297Q point mutation) VH: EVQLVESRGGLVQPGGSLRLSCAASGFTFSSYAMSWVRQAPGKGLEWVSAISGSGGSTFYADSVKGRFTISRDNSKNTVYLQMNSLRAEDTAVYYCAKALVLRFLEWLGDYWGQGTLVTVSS VL: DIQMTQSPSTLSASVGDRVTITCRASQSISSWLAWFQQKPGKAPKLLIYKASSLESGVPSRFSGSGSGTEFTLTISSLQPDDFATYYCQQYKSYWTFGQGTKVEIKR	False

Input H1H27731P-N297Q (antibody, V domains shown, Human IgG1 Fc with N297Q point mutation) VH: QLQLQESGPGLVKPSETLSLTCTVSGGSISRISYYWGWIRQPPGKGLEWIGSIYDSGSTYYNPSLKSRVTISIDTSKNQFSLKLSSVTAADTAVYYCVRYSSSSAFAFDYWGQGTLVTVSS VL: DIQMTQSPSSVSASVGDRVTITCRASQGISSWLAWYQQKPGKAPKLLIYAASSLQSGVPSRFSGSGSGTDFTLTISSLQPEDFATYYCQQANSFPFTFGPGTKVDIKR ; condition: koff strictly below 0.0001 s⁻¹. Does it hold?
True

Field: below-cutoff. Rule: recorded koff strictly less than 0.0001 s⁻¹. Subject: H1H27754P-N297Q (antibody, V domains shown, Human IgG1 Fc with N297Q point mutation) VH: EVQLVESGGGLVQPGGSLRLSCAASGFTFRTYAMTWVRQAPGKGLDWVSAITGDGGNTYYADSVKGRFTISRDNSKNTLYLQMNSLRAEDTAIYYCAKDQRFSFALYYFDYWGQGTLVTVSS VL: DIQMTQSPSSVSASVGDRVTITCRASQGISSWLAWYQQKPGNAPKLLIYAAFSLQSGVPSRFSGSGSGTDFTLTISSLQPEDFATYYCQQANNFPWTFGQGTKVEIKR
True
